Recorded pIC50, one value per entry.
Target: Amine oxidase [flavin-containing] B (Homo sapiens, UniProt P27338)
Sequence (P27338 whole entry): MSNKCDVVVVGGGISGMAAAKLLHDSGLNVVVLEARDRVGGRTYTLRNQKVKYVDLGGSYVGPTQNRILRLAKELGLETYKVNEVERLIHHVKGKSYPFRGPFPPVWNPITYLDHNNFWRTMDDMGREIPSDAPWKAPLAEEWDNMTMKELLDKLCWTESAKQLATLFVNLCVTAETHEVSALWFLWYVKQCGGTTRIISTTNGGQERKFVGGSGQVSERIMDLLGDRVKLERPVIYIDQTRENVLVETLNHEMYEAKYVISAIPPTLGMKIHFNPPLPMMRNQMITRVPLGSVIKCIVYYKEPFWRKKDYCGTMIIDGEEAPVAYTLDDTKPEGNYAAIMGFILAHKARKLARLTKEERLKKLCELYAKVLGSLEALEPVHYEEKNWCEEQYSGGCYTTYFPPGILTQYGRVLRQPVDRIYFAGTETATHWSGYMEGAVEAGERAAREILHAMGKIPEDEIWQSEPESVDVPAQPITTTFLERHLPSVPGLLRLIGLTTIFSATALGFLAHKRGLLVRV
Test: Inhibition of human recombinant MAOB using kynuramine as substrate incubated for 10 mins by UPLC-ESI-MS/MS analysis
pIC50: −log10 of the molar value.

Asked: Annotate the molecule Cc1cc2cccc(O)c2c(=O)o1 with its measured pIC50.
Given back: < 4.30

Continuing:
Asked: Report pIC50 for CC[C@@H]1Cc2c(C)cc(-c3cncnc3)c(O)c2C(=O)O1
Given back: < 4.30

Asked: Give a short answer stating reported pIC50 for Cc1ccc(O)c2c1C[C@@H](C)OC2=O .
Given back: 4.41

Asked: Return the recorded pIC50 value; entry: Cc1cc([N+](=O)[O-])c(O)c2c1C[C@@H](C)OC2=O
Given back: < 4.30

Asked: Consider the molecule CCc1cc(C)c2c(c1O)C(=O)O[C@H](C)C2 . State its measured pIC50.
Given back: < 4.30

Asked: Answer with the recorded pIC50 for the molecule listed here: CCCCc1cc(C)c2c(c1O)C(=O)O[C@H](C)C2
Given back: < 4.30

Asked: Give the measured pIC50 for CCN(CC)C(=O)c1cc(C)c2c(c1O)C(=O)O[C@H](C)C2
Given back: < 4.30

Asked: Annotate the molecule Cc1cc(-c2cccnc2)c(O)c2c1C[C@@H](C)OC2=O with its measured pIC50.
Given back: < 4.30

Asked: Return reported pIC50. Input molecule: Cc1cc(C#N)c(O)c2c1C[C@@H](C)OC2=O
Given back: < 4.30

Asked: Provide one value: measured pIC50 of C=CC(=O)Nc1cc(C)c2c(c1O)C(=O)O[C@H](C)C2
Given back: < 4.30

Asked: Quick one: give measured pIC50 for Cc1cc(-c2cccc(N)c2)c(O)c2c1C[C@@H](C)OC2=O
Given back: < 4.30

Asked: # return recorded pIC50 for entry Cc1ccc(-c2cc(C)c3c(c2O)C(=O)O[C@H](C)C3)cc1
Given back: 5.39
